- System: UO-31 renal
- assayDetails: NCI-60 one-dose screen, 48 h (100 = growth as untreated, 0 = no growth, -100 = all killed)
- conditionParameters: 10 µM unless noted
- Experimental: Growth inhibition of the UO-31 human tumor cell line is measured as a screen for anti-cancer activity. Cells are grown in 96 well plates and exposed to the test compound for 48 hours. Compounds are tested at a single concentration, which is 10^-5 M for most compounds. The reported endpoint is percent growth (GI% or GIPRCNT), where numbers from 0 - 100% represent growth inhibition, and numbers from -100% - 0 represent cell death. For example, a value of 40 represents 60% growth inhibition. […]
The panel holds about 83,000 compounds, 20% with a hit somewhere; the sample as a whole holds those more often.
Sorting guide: entries reporting growth beneath 50% go in the 1 (yes) pile, the rest go in the 0 (no) pile.

Solved entries:
• CC(=O)OC[C@H](O)[C@@]1(O)CC[C@H]2[C@@H]3CCC4=CC(=O)CC[C@]4(C)[C@H]3[C@@H](O)C[C@@]21C = 0 (no)
• Cc1cc(NS(=O)(=O)c2ccc(NC(=O)COc3ccc(-c4cc5ccccc5[nH]4)cc3)cc2)no1 = 1 (yes)
• COc1ccc(-c2[nH]ncc2Nc2cc(OC)c(OC)c(OC)c2)cc1 = 1 (yes)

Now for a further compound.
Consider COc1ccc(-c2nc3sc(C)cn3c2/C=C/C(=O)c2cc(OC)c(OC)c(OC)c2)cc1 . Does its growth lie strictly below 50%? 1 (yes)

* * *

- Tested on: BT-549 breast
- assayDetails: NCI-60 one-dose screen, 48 h (100 = growth as untreated, 0 = no growth, -100 = all killed)
- conditionParameters: 10 µM unless noted
This is part of a sample that, as a whole, favours compounds with a hit. Of some 83,000 tested, about 20% had one in any assay.
quantityMeasured: growth (%)
One number for each entry, in %.

- O=C(N/N=C(\CS(=O)(=O)c1ccccc1)c1cc2cc(Br)ccc2oc1=O)c1ccccc1: 102

Quick request: growth for each listed item, please.
1. COc1ncnc2c1ncn2C/C(Br)=C(\Br)CCl
2. FC(F)(F)Oc1ccc2c(c1)C[C@H]1C[C@@H](c3ccoc3)N2O1
3. CCCCc1ccc(C(O)(CCN2CC3CCC(CC3)C2)c2ccccc2)cc1 (stereo not drawn)
4. O=C1/C(=C/c2ccc(Cl)cc2)CN(Cc2cn(CCCNc3ccnc4cc(Cl)ccc34)nn2)C/C1=C\c1ccc(Cl)cc1

1. 70.2
2. 112
3. 90.2
4. -87.6

* * *

- Tested on: SF-539 CNS
- assayDetails: NCI-60 one-dose screen, 48 h (100 = growth as untreated, 0 = no growth, -100 = all killed)
- conditionParameters: 10 µM unless noted
This is part of a sample that, as a whole, favours compounds with a hit. Of some 83,000 tested, about 20% had one in any assay.
quantityMeasured: growth (%)
Answers are plain numbers, in %.

Guide cases for growth, answers given:
* COCCOC1=C(Cl)C(=O)c2ccccc2C1=O | -10.4
* COc1ccc(/C=C(\C#N)c2ccc(OC)cc2)cc1 | 79.7
* O=C1OCC2=C1C(c1ccc3c(c1)OCO3)CC(=O)N2c1cccc(Cl)c1 (stereo not given) | 104
* O=C(Nc1ccc(Cl)c(Cl)c1)OCn1ncc2ccc([N+](=O)[O-])cc21 | 78.1
* Nc1nc(N)c(N=Nc2c(Br)cc(S(N)(=O)=O)cc2Br)c(N)n1 | 112
* COc1ccc(/C=N/NC(=O)c2cnn(CC(O)Cc3ccccc3)c2N)cc1OC1CCCC1 (stereo not given) | 87.3
* Cn1c2ccccc2c2nn(Cc3ccccc3)c(=O)nc21 | 99.7
* O=C1c2[nH]cc(CN[C@@H]3CCCN3)c2C(=O)c2c1c(O)c1ccccc1c2O | -94.1
* O=[N+]([O-])c1ccc(O)c2ncccc12 | 42.2
* N#Cc1ccc(C(F)(F)F)nc1N1CCC(C(=O)Nc2ccc(Cl)cc2)CC1 | 100

Quick request: growth for each listed item, please.
1. O=c1nc(NO)[nH]c(=O)n1Cc1ccc(F)cc1
2. CN1CCC(OC2c3ccccc3CCc3ccccc32)CC1
3. Cc1nc2nc(C(F)(F)F)[nH]c2nc1C
4. CCCCCCCCCCCCCCNc1nc(CO)ncc1-c1ccc(C(F)(F)F)cc1
5. COc1cccc(Nc2nc(NCCO)c3ccccc3n2)c1

1. 102
2. 102
3. 120
4. 95.6
5. 81.5

* * *

- Test system: T-47D breast
- assayDetails: NCI-60 one-dose screen, 48 h
- conditionParameters: 10 µM
This is part of a sample that, as a whole, favours compounds with a hit. Of some 83,000 tested, about 20% had one in any assay. The source made the active and inactive calls. Rule for the calls: active = growth percent below 10; inactive = the rest.
Pick one and only one: active, inactive

Solved entries:
• COc1cc(-c2nc3ccccc3o2)cc(CN2CCN(c3ccccc3)CC2)c1O = inactive
• Nc1nc(N)c(N=Nc2c(Br)cc(S(N)(=O)=O)cc2Br)c(N)n1 = inactive
• CCOC(=O)c1c(Cl)c2c(n1Cc1cc(OC)cc(OC)c1)-c1oncc1CCC2 = inactive

Now for a further molecule.
Just curious, what result did COc1ccc(CSc2nc3cc(OC)c(OC)cc3c(=O)n2-c2ccc(Cl)cc2)cc1 get here? inactive

* * *

- System: MCF7 breast
- assayDetails: NCI-60 one-dose screen, 48 h (100 = growth as untreated, 0 = no growth, -100 = all killed)
- conditionParameters: 10 µM unless noted
About 83,000 compounds went through this panel and 20% of them were active in at least one assay; those are over-represented in the sample as a whole.
Field: growth. Provide a value for each of the molecules that follow.
One number for each entry, in %.

• Cc1ccc(C2SCC(=O)N2NC(=O)c2[nH]c3ccc(F)cc3c2-c2ccccc2)cc1 (centres undefined) = 93.1
• O=C(Nc1ccc(Cl)c(Cl)c1)OCn1ncc2ccc([N+](=O)[O-])cc21 = 85.9
• COC(=O)CCC(=O)c1ccccc1 = 96.1
• CCCCC/C=C\C/C=C/CCCCCCCCNC(=O)Nc1ccc([N+](=O)[O-])cc1 = 103
• CC[Si](CC)(CC)OC1[C@@H](O[Si](CC)(CC)CC)[C@@H](CNC(=O)NC)O[C@H]1n1cnc2c(NC(=O)Nc3ccccc3)ncnc21 (some centres undefined) = 61.6

Quick request: growth for each listed item, please.
1. CC(C)(C)[Si](C)(C)OC1[C@@H](COC(N)=O)O[C@@H](n2cnc3c(N)ncnc32)[C@H]1O[Si](C)(C)C(C)(C)C (some centres undefined)
2. O=C(Nc1ccc(Cl)c(Cl)c1)NC(CO)(CO)CO
3. O=[N+]([O-])c1cc2c(cc1Br)-c1ccccc1C2
4. Fc1ccccc1Nc1ccc2nnc(-c3ccncc3)n2n1
5. N#Cc1ccc(C(F)(F)F)nc1N1CCC(C(=O)Nc2ccc(Cl)cc2)CC1
6. CNc1ccc(Br)cc1-c1n[nH]c(=O)[nH]c1=O
7. CCC12CCC3c4ccc(O)cc4CCC3C1CC(O)C2O (centres undefined)

1. 78.6
2. 97.4
3. 3.07
4. 94.7
5. 60
6. 90.2
7. 75.5

Quick request: growth for each listed item, please.
1. O=C1C(Cl)=C(NCCCN2CCOCC2)C(=O)c2ccccc21
2. NC1=NC(c2ccccc2OS(=O)(=O)c2ccc(Br)cc2)n2c(nc3ccccc32)N1 (centres undefined)
3. COC(=O)c1c2c(c(C)[n+]([O-])c1C)C(=O)C=C(NCc1ccc(F)c(Cl)c1)C2=O
4. COc1ccc(NS(=O)(=O)c2ccc(-c3cnc(C4CC4)o3)cc2)cc1
5. Cc1ccc(N=c2nc3sc4c(C)ccc(C)c4n3c(N)c2C#N)cc1
6. Cc1ccc(S(=O)(=O)N2CCc3ccc(O)c4c3C2CCc2ccccc2-4)cc1 (centres undefined)

[74.6, 77.3, -61.9, 29.4, 88.3, 103]

Quick request: growth for each listed item, please.
1. NC(=O)c1cc(I)ccc1NC(=O)COc1ccc(Cl)cc1Cl
2. Cc1ccc(C)c2c1sc1nc3nc4sc5ccccc5n4c(=N)c3c(=O)n12
3. O=C1CCC(N2C(=O)c3cccc(NCCOCCOCCNC(=O)c4cc5c(o4)C(=O)c4ccccc4C5=O)c3C2=O)C(=O)N1 (centres undefined)
4. O=C1c2cc(S(=O)(=O)O)ccc2C(=O)c2c1cccc2[N+](=O)[O-]
5. COc1cccc(C2C3=C(COC3=O)N(CCO)c3cc4c(cc32)OCO4)c1 (centres undefined)
6. CCCCC(CCCC)(S(=O)(=O)CC)S(=O)(=O)CC

1: 72.2; 2: 51.1; 3: -61.3; 4: 101; 5: 14.6; 6: 105

* * *

- System: NCI/ADR-RES ovarian
- assayDetails: NCI-60 one-dose screen, 48 h (100 = growth as untreated, 0 = no growth, -100 = all killed)
- conditionParameters: 10 µM unless noted
The panel holds about 83,000 compounds, 20% with a hit somewhere; the sample as a whole holds those more often. The source made the active and inactive calls. How the source made its calls: active means growth percent below 10; inactive means the rest.
quantityMeasured: growth

* CCOC(=O)C(CC(c1ccccc1)N1CCCCC1)[N+](=O)[O-] (stereo unspecified) | 61.4% (inactive)
* CCCCC(=O)N/N=C/c1cc(I)cc(I)c1O | 23.9% (inactive)
* O=C(O)C[C@H](O)C[C@H](O)/C=C/c1c(C2CC2)nc2ccccc2c1-c1ccc(F)cc1 | 37.2% (inactive)
* O/N=C/c1cccs1 | 121% (inactive)
* O=c1[nH]c(=O)n(Cc2ccc(F)cc2)cc1F | 113% [50 µM] (inactive)

Quick request: growth for each listed item, please.
1. CC(C)(C)[Si](C)(C)OC1[C@@H](CNC(=O)NC(=O)CCl)O[C@@H](n2cnc3c(N)ncnc32)[C@H]1O[Si](C)(C)C(C)(C)C (stereo partly specified)
2. COc1cc2cc(Oc3ccc(NC(=O)Nc4cccc(C(F)(F)F)c4)cc3)c(C)nc2cc1OCCN1CCCCC1
3. O=c1oc2ccccc2cc1-c1csc(N/N=C/c2cc3ccccc3nc2Cl)n1
4. Cc1ccc(S(=O)(=O)c2ccc3[nH]c(=O)[nH]c(=O)c3c2)cc1

1: -30.4% (active); 2: 20.1% (inactive); 3: 99.7% (inactive); 4: 107% (inactive)

Quick request: growth for each listed item, please.
1. CCCCC/C=C\C/C=C/CCCCCCCCNC(=O)Nc1ccc([N+](=O)[O-])cc1
2. CN1CCN(C(=O)OCCOCCOC(=O)N2CCN(C)CC2)CC1

1. 21.5% (inactive)
2. 96.3% (inactive)
